The origin of these recorded values is PubChem BioAssay (NCI).

experiment: NCI Yeast Anticancer Drug Screen. Data for the mlh1 rad18 strain (AID 175); settings: S. cerevisiae mlh1 rad18 strain growth inhibition; at 50.0 µM; active compounds read high
This is part of a sample that, as a whole, favours compounds with a hit. Of some 79,000 tested, about 15% had one in any assay.
# growth inhibition per entry

{"COMPOUND": "Br/C=C/c1ccccc1", "growth inhibition [%]": 46.1}
{"COMPOUND": "CC1C(=O)C23CC1CCC2C12COC(O)C1C(C)(C)C(O)CC2OC3=O (configuration not stated)", "growth inhibition [%]": -16.4}
{"COMPOUND": "CN(C)S(=O)(=O)C(C(=O)Nc1ccccc1)c1ccccc1 (configuration not stated)", "growth inhibition [%]": -10.5}
{"COMPOUND": "COc1cccc2c1C(=O)OC2c1cccc2ccccc12 (configuration not stated)", "growth inhibition [%]": 16}
{"COMPOUND": "O=C1CN(c2cccc(C(F)(F)F)c2)C(=O)CN1CCN1CC(=O)N(c2cccc(C(F)(F)F)c2)CC1=O", "growth inhibition [%]": -5.2}
{"COMPOUND": "CCOC(=O)C(C(C)=O)C(c1ccc(OCc2ccccc2)c(C)c1)C(C(C)=O)C(=O)OCC (configuration not stated)", "growth inhibition [%]": 19.9}
{"COMPOUND": "c1ccc(N2CCN(CCCN3CCc4c([nH]c5ccccc45)C3c3cccnc3)CC2)cc1 (configuration not stated)", "growth inhibition [%]": -1.8}
{"COMPOUND": "c1csc(-c2nc3sc(-c4cccs4)nc3s2)c1", "growth inhibition [%]": -2.4}
{"COMPOUND": "Cc1cc(C)nc(NS(=O)(=O)c2ccc(NC(=O)c3ccc(Cl)c4c(Nc5ccc(S(=O)(=O)Nc6nc(C)cc(C)n6)cc5)c5ccccc5nc34)cc2)n1", "growth inhibition [%]": 30.4}
{"COMPOUND": "O=C(NC(c1ccccc1)c1cccs1)c1cccs1 (configuration not stated)", "growth inhibition [%]": 3.95}
{"COMPOUND": "NC(N)=NC(N)=Nc1ccc(N=C(N)N=C(N)N)cc1", "growth inhibition [%]": -1.3}
{"COMPOUND": "COc1ccc(NC2CC(C)N(C(=O)c3ccccc3)O2)cc1 (configuration not stated)", "growth inhibition [%]": -19.2}
{"COMPOUND": "COc1ccccc1NC=O", "growth inhibition [%]": 2.55}
{"COMPOUND": "O=C(O)CC/C(=N\\Nc1ccc([N+](=O)[O-])cc1[N+](=O)[O-])c1ccccc1", "growth inhibition [%]": 30.3}
{"COMPOUND": "CN(C)CCC(N)(P(=O)([O-])[O-])P(=O)([O-])[O-].N.N.[Pt+2]", "growth inhibition [%]": 3.95}
{"COMPOUND": "CN(C)c1nc(N/N=C\\C(O)C(O)C(O)C(O)CO)nc(N(C)C)n1 (configuration not stated)", "growth inhibition [%]": 9}
{"COMPOUND": "COc1cc(C2(C)SCCCS2)cc(OC)c1OC", "growth inhibition [%]": -15.3}
{"COMPOUND": "CC(=O)NNc1nc(C)c(C(/C=C/c2ccc(Cl)cc2)=N\\NS(=O)(=O)c2ccc(C)cc2)s1", "growth inhibition [%]": 9.45}
{"COMPOUND": "CCCCCCCCCCCCCCC/C=C\\C(=O)O", "growth inhibition [%]": 1.4}
{"COMPOUND": "O/N=C/c1cccc[n+]1Cc1ccccc1", "growth inhibition [%]": 1.25}
{"COMPOUND": "CCn1cc(C(=O)O)c(=O)c2ccc(-c3ccncc3)cc21", "growth inhibition [%]": 11.4}
{"COMPOUND": "COC(=O)C1(C)C=CC(=O)C2(C)C1C(O)C1OC3CC(c4ccoc4)C(C)=C3C1(C)C2CC(=O)O (configuration not stated)", "growth inhibition [%]": -21.3}
